biological target: T1, VLA-4 (alpha4beta1 integrin) (UniProt P13612 34-1032; P05556 21-798, limits assumed); assay: Ramos/BSA-CS1 adhesion inhibition
T1 construct: whole, on cells; also called very late antigen-4; CD49d/CD29
T1 sequence (P13612 34-1032 limits assumed, chain 1 of 2): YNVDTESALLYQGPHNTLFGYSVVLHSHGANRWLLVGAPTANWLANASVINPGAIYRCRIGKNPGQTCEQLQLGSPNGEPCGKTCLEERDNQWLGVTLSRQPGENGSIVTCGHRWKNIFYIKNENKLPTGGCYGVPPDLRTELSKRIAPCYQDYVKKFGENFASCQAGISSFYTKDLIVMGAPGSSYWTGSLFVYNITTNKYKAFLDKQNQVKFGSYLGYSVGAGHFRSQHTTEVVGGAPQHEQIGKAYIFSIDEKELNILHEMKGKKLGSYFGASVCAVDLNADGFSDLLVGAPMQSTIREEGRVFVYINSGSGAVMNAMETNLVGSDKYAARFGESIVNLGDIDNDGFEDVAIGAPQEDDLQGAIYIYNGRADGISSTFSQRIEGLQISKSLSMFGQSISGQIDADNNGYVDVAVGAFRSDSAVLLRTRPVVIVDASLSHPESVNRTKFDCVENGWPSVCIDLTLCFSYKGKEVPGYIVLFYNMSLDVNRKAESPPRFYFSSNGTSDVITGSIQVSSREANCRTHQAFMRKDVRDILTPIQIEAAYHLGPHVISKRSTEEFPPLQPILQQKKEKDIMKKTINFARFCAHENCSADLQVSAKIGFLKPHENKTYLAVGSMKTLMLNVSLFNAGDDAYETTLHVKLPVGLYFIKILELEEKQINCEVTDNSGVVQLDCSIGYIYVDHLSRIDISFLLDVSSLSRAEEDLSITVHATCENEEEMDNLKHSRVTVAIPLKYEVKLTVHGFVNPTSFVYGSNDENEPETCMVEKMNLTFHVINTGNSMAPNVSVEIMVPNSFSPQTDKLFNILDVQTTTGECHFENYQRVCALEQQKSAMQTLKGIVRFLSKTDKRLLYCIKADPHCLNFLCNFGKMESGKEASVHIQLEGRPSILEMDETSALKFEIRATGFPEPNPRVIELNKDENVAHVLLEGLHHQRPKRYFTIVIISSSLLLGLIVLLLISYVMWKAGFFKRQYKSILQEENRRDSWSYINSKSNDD
T1 sequence (P05556 21-798 limits assumed, chain 2 of 2): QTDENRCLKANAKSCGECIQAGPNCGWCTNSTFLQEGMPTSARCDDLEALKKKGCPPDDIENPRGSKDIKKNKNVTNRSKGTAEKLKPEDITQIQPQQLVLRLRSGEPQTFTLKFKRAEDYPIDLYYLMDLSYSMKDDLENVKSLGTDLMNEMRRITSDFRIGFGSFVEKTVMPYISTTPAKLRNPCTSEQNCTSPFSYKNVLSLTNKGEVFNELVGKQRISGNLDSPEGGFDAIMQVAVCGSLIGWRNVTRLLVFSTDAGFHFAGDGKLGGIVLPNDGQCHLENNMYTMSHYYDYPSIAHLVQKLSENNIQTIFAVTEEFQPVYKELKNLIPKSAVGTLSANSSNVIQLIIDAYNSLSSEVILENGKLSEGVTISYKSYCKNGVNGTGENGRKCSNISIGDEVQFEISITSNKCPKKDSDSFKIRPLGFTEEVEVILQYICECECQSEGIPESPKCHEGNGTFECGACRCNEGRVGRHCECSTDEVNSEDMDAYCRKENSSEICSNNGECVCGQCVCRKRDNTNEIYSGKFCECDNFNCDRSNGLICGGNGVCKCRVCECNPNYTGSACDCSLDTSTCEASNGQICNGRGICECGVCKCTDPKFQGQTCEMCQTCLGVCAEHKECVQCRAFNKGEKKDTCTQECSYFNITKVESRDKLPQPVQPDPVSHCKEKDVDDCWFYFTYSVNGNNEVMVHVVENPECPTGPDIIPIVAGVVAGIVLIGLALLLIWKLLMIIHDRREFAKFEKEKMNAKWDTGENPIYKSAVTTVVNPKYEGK
Measured IC50 accompanies every entry in the list below.

[
  {
    "Binder": "LDVPST (HELM PEPTIDE1{[Cc1ccccc1NC(=O)Nc1ccc(CC(=O)[*:2])cc1].L.D.V.P.S.T}$$$$V2.0; SMILES Cc1ccccc1NC(=O)Nc1ccc(CC(=O)N[C@@H](CC(C)C)C(=O)N[C@@H](CC(=O)O)C(=O)N[C@H](C(=O)N2CCC[C@H]2C(=O)N[C@@H](CO)C(=O)N[C@H](C(=O)O)[C@@H](C)O)C(C)C)cc1) [Compound 338]",
    "IC50": "< 0.05 µM"
  },
  {
    "Binder": "LDVM (HELM PEPTIDE1{[O=C(c1ccc2ccccc2n1)[*:2]].L.D.V.M}$$$$V2.0; SMILES CSCC[C@H](NC(=O)[C@@H](NC(=O)[C@H](CC(=O)O)NC(=O)[C@H](CC(C)C)NC(=O)c1ccc2ccccc2n1)C(C)C)C(=O)O) [Compound 186]",
    "IC50": "> 10 µM"
  }
]

The origin of these recorded values is patent US6596687B1.
